pIC50 for assorted binders
Molecular target: T1, full-length beta-Catenin (Uniprot ID P35222) (Homo sapiens (Human), UniProt P35222 2-781)
T1 construct: also called bCat; B-Catenin
T1 sequence: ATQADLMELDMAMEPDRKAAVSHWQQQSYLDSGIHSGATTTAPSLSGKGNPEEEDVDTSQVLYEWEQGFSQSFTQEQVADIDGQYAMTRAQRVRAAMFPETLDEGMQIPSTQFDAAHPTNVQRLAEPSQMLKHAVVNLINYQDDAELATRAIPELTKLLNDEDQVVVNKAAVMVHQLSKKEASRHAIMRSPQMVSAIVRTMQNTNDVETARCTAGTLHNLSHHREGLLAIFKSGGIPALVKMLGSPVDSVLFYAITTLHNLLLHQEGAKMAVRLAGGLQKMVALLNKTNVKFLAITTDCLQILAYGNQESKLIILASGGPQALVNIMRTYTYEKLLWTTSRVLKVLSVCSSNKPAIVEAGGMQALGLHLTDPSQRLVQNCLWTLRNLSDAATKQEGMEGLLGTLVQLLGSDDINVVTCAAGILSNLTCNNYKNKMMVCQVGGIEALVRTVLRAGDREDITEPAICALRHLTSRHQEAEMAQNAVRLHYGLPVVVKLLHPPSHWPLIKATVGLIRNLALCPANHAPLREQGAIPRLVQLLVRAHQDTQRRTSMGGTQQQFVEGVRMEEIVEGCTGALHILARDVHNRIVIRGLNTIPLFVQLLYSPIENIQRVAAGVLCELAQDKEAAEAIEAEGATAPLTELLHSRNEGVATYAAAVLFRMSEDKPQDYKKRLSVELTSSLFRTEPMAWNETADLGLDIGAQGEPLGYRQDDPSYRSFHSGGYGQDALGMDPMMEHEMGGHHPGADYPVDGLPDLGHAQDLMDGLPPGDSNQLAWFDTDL
Assay: fluorescence polarization competition; peptide titrated against 10 nM full-length beta-catenin with 10 nM 5FAM-TCF4(10-53) probe
Starred links: 1 amine or outer side, 2 acyl side, 3 side chain; linkers in the order of their positions; H or OH if unused. Positions of bridges follow the written chain, without caps; N, C: chain ends. Non-standard residues stand in square brackets, D forms with d. Primed or numbered codes have the meaning given here. RdN″ = (R)-4-(((allyloxy)carbonyl)(methyl)amino)-2-amino-2-methylbutanoic acid (stapling residue), C=CCOC(=O)N(C)CC[C@@](C)(N[*:1])C(=O)[*:2]; RdN = (R)-4-(((allyloxy)carbonyl)(methyl)amino)-2-amino-2-methylbutanoic acid, C=CCOC(=O)N(C)CC[C@@](C)(N[*:1])C(=O)[*:2]; PyrS = (S)-1-((allyloxy)carbonyl)-3-aminopyrrolidine-3-carboxylic acid, C=CCOC(=O)N1CC[C@@](N[*:1])(C(=O)[*:2])C1; S7 = C[C@@](CCCCCC=[*:3])(N[*:1])C(=O)[*:2]; Phe(4-F) = N[C@@H](Cc1ccc(F)cc1)C(=O)O; R8 = C=CCCCCCC[C@@](C)(N)C(=O)O
Kindly note that pIC50 refers to -log10 of the concentration in mol/L and answer with the value alone.

Recorded pIC50, per entry:
- binder: "Ac-ADI[RdN]DEAAFQ[S7]FWH-NH2 (staple 4-11) [I-66: Ac-Ala-Asp-Ile-RdN-Asp-Glu-Ala-Ala-Phe-Gln-S7-Phe-Trp-His-NH2 (stapled peptide)]"
  pIC50: 5.96
- binder: "Ac-FDA[R8]DDAA[Phe(4-F)]V[PyrS]FWQ-NH2 (staple 4-11) [I-78: Ac-Phe-Asp-Ala-R8-Asp-Asp-Ala-Ala-4FF-Val-PyrS-Phe-Trp-Gln-NH2 (stapled peptide)]"
  pIC50: 5.30

stdin: For Ac-ADI[RdN″]DEAAFQ[S7]FWH-NH2 (staple 4-11, This is the later eluting staple isomer composition) [I-67: Ac-Ala-Asp-Ile-RdN-Asp-Glu-Ala-Ala-Phe-Gln-S7-Phe-Trp-His-NH2 (stapled peptide)] , what is its reported pIC50?
stdout: 5.91

Values from patent US20240116985A1
